All figures here come from patent US20250027068.

molecular target: pooled human IgG (human IgG1,2,3 and 4)
Reported metric: log10 of Enzyme activity endpoint: Fab′2 (log10 of the value in ng/µL)
// do not treat as linear: log10 of Enzyme activity endpoint: Fab′2, unit ng/µL

Dear reader, for each entry below, please note its log10 of Enzyme activity endpoint: Fab′2.
1. PRT-680 (protein) MQITSVWTKGVTPLTPEQFRYNNEDVIHAPYLPHQGWYDITKAFDGKDNLLCGAATAGNMLHWWFDQNKTEIEAYLSKHPEKQKIIFNNQELFDLRAAINTKDSQTNSALFNYFRDKAFPNLSARQLGVMPDLVLDMFINGYYLNVFKTQSTDVNRPYQDKDKRGGIFDAVFTRGDQTTLLTARHDLKNKGLNDISTIIKQELTEGKALALSHTYANVSISHVINLWGADFNAEGNLEAIYVTDSDANASIGMKKYYVGINAHGHVAISAKKIEGENIGAQVLGLFTLSSGKDIWQKLSLEHHHHHH
2. PRT-631 (protein) MQITSVWTKGVTPLTPEQFRYNNEDVIHAPYLAHQGWYDITKAFDGKDNLLCGAATAGNMLHWWFDQNKEEIDNYLKKYPDKQKIIFNNQELFDLKAAIDTKDSQTNSQLFNYFRDKAFPNLSARQLGVMPDLVLDMFINGYYLNVFKTQSTDVNRPYQDKDKRGGIFDAVFTRGDQTTLLTARHDLKNKGLNDISTIIKQELTEGRALALSHTYANVSISHVINLWGADFNAEGNLEAIYVTDSDANASIGMKKYFVGINAHGHVAISAKKIEGENIGAQVLGLFTLSSGKEIWKKLSLEHHHHHH
3. PRT-648 (protein) MQITSVWTKGVTPLTPEQFRYNNEDVIHAPYLAHQGWYDITKAFDGKDNLLCGAATAGNMLHWWFDQNKTEIEAYLSKHPEKQKIIFNNQYLFDLKAAIDTKDSQTNSQLFNYFRDKAFGNLSARQLGVMPDLVLDMFINGYYLNVNKTQSTDVNRPYQKPDKRGGIFDAVFTRGDQTTLLTARHDLKNKGLNDISTIIKQELTEGRALALSHTYANVSISHVINLWGADFNAEGNLEAIYVTDSDANASIGMKKYFVGINAHGHVAISAKKIEGENIGAQVLGLFTLSSGKDIWQKLSLEHHHHHH
4. PRT-673 (protein) MQITSVWTKGVTPPTPEQFRYYNEDVLHAPYKPHQGWYDITKTFNGKDNLLCGAATAGNMLHWWFDQNKTQIEAYLKKYPEKQKIIFNNQKMFDLRKAINTKDSQTNSALFSYFKDKAFPNLSARQRGVMPDLVLDMFINGYYLNVGKTQSTDVNRPYQTRDKRGGIFDHVFGRGDQTKLLTARHDLKNKTLNEISQLIKQELSEGKALALSHTYANVSISHVINLWGADFNAEGNLEAIYVTDSDSDAKIGMKKYYVGKNASGKVAISAKKIEGENIGAQVLGLYTLSTGKDIWQKLSLEHHHHHH
5. PRT-613 (protein) MQITTVWTKGVTPLTPEQFRYNNEDVIHAPYLAHQGWYDITKAFDGKDNLLCGAATAGNMLHWWFDQNKTEIEAYLSKHPEKQKIIFNNQELFDLKAAISTKDSQTNSQLFNYFRDKAFPNLSARQLGVMPDLVLDMFINGYYLNVFKTQSTDVNRPYQDKDKRGGIFDDVFTRGDQTTLLTARHDLKNGGLNDISTIIKQELTNGRALALSHTYANVSISHVINLWGADFNAEGNLEAIYVTDSDANARIGMKKYGVGINAHGHVAISAKKIEGENIGAQVLGLFTLSSGKDIWQKLSLEHHHHHH
6. PRT-656 (protein) MQITSVWTKGVTPLTPEQFRYNNEDVIHAPYLAHQGWYDITKAFDGKDNLLCGAATAGNMLHWWFDQNKTEIEAYLSKHPEKQKIIFNNQELFDLKRAINDKDSQQNSELFNYFRDKAFPNLSARQLGVMPDLVLDMFINGYYLNVFKTQSTDVNRPYQDKDKRGGIFDAVFTRGDQTTLLTARHDLKNKGLNDISTIIKQELTEGRALALSHTYANVSISHVINLWGADFNAEGNLEAIYVTDSDANASIGMKKYFVGINAHGHVAISAKKIEGENIGAQVLGLFTLSSGKDIWQKLSLEHHHHHH
7. PRT-557 (protein) MANQEIRYSEEDGKTITSVWTKGVTPPTDFQKNEDVYHAPYVANQGWYDITKTFNGKDDLLCGAATAGNMLHWWFDQNKEEIERYLKKHPEKQKINFNGEQMFDVKEAIDTKDSQTDSALFEYFKDKAFPYLSTKHLGVFPDHVIDMFINGYRLSLTNHGPTPVKDGTKDPRGGIFDAVFTRGDQTKLLTERHDFKEKTLNEISDLIKQELQEGKALGLSHTYANVRINHVINLWGADFDSEGNLEAIYVTDSDSNASIGMKKYYVGVNSAGKVAISAKEIEDDNIGAQVLGLFTLSTGKDIWEQTNLEHHHHHH

// result
1. 2.88
2. 2.87
3. 2.26
4. 1.53
5. 2.84
6. 2.92
7. 2.71

// query Report log10 of Enzyme activity endpoint: Fab′2 for PRT-649 (protein) MQITSVWTKGVTPLTPEQFRYNNEDVIHAPYLAHQGWYDITKAFDGKDNLLCGAATAGNMLHWWFDQNKTEIEAYLSKHPEKQKIIFNNQYLFDLKAAIDTKDSQTNSQLFNYFRDKAFGNLSARQLGVMPDLVLDMFINGYKLKVNKTQSTDVNRPYQKPDNFGGIFDAVFTRGDQTTLLTARHDLKNKGLNDISTIIKQELTEGRALALSHTYANVSISHVINLWGADFNAEGNLEAIYVTDSDANASIGMKKYFVGINAHGHVAISAKKIEGENIGAQVLGLFTLSSGKDIWQKLSLEHHHHHH please.
// result 2.82
